// compounds with pKi on Adenosine receptor A1 (Rattus norvegicus, UniProt P25099), multi-source literature
# assay.target: Adenosine receptor A1 (Rattus norvegicus, UniProt P25099)
# Sequence (P25099 whole entry): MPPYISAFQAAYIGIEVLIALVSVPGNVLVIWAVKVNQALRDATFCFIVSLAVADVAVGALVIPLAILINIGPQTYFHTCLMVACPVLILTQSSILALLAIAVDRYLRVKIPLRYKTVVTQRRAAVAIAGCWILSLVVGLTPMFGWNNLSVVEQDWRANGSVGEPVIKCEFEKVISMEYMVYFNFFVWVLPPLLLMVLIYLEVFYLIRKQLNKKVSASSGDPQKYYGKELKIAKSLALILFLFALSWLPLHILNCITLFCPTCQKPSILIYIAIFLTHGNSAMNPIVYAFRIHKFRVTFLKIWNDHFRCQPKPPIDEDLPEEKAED
pKi: −log10 of the molar value.
measured.metric: pKi

Worked cases, answers included:
compound=O[C@@H]1[C@H](O)[C@@H]2C[C@@H]2[C@H]1n1cnc2c(NCC3CC3)nc(Cl)nc21 measured_metric=pKi observed_value=9.10
compound=CCCn1c(=O)[nH]c2nc(-c3ccc(S(=O)(=O)N4CCN(Cc5ccccc5)CC4)cc3)[nH]c2c1=O measured_metric=pKi observed_value=6.59
compound=CCCn1c(=O)c2nc(-c3ccc(OC)cc3)[nH]c2n(CCC)c1=O measured_metric=pKi observed_value=7.85
compound=OC[C@H]1O[C@@H](n2cnc3c(NN4CCCCC4)ncnc32)[C@H](O)[C@@H]1O measured_metric=pKi observed_value=8.14
compound="CCCn1c(=O)c2c(ncn2C2O[C@H](CO)[C@@H](O)[C@H]2O)n(CCC)c1=O (stereo not given in full)" measured_metric=pKi observed_value=4.80

[P] Nc1nc(Cl)nc2c1ncn2[C@@H]1S[C@H](CO)[C@@H](O)[C@H]1O
[Q] CCCn1cnc2c1c(=O)n(C)c(=O)n2CC(C)C
[R] NC1=Nc2c(ncn2C2O[C@@H](CO)[C@H](O)[C@@H]2O)C2=N[C@H](c3ccccc3)CN12 (stereo not given in full)
[S] O=C(Cc1cccc(I)c1)Nc1nc2ccc(Cl)cc2c2nc(-c3ccco3)nn12
# desc sort on pKi across 4 compounds List the labels in the requested order.
S, P, R, Q

----------
// molecules with Ki on Adenosine receptor A1 (Rattus norvegicus), multi-source literature
measured.metric: Ki (nM)

Worked cases, answers included:
chemical_smiles=Clc1ncnc2c1c1ccccc1n2-c1ccccc1 assay_target="Adenosine receptor A1 (Rattus norvegicus)" measured_metric=Ki observed_value=2420
chemical_smiles=Nc1nc(SCC(=O)O)nc2c1ncn2[C@@H]1O[C@H](CO)[C@@H](O)[C@H]1O assay_target="Adenosine receptor A1 (Rattus norvegicus)" measured_metric=Ki observed_value=1930

[I] CCn1c(=O)c2[nH]c(-c3ccc(OCC(=O)Nc4ccc(C#N)cc4)cc3)nc2n(CCCOC)c1=O
[II] c1ccc(Nc2ncnc3c2ncn3-c2ccccc2)cc1
[III] CCCCn1c(=O)c2c(nc3n2CCCN3c2ccc(OCCN3CCOCC3)cc2)n(CCCC)c1=O
rank_up(items): orders items by reported Ki in ascending numerical order. List the labels in the requested order.
III, I, II
(III: 268 nM, I: 676 nM, II: 6900 nM)

----------
# assay.target: UniProt:P25099
# Sequence (P25099 whole entry): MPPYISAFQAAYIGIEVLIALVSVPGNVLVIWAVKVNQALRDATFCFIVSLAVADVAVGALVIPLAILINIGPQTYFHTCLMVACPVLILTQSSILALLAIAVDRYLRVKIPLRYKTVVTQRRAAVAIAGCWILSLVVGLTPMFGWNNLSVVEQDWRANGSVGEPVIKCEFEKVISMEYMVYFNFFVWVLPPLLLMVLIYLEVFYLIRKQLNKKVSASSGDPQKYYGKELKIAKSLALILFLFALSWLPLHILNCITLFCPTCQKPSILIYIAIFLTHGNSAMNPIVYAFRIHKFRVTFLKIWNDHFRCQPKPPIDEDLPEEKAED
// molecules with Ki on UniProt:P25099, multi-source literature
measured.metric: Ki (nM)

molecule="CCNC(=O)[C@H]1OC(n2cnc3c(N)nc(C#Cc4ccc(F)cc4)nc32)[C@H](O)[C@@H]1O (stereo partly drawn)" assay_target=UniProt:P25099 measured_metric=Ki observed_value=3310
molecule=Nc1[nH]c2ccccc2c2nc(C3CCCC3)nc1-2 assay_target=UniProt:P25099 measured_metric=Ki observed_value=270
molecule=CC(C)(O)C#Cc1nc(N)c2ncn([C@@H]3O[C@H](CO)[C@@H](O)[C@H]3O)c2n1 assay_target=UniProt:P25099 measured_metric=Ki observed_value=32
molecule=CC(C)CCn1ncc2c1nc(N)n1nc(-c3ccco3)nc21 assay_target=UniProt:P25099 measured_metric=Ki observed_value=116
molecule=Cc1ccc2nc(NC(=O)CCCc3ccccc3)sc(=O)c2c1 assay_target=UniProt:P25099 measured_metric=Ki observed_value=98.3
molecule=CCNC(=O)[C@H]1O[C@@H](n2cnc3c(NC(=O)Nc4cccc(Cl)c4)nc(I)nc32)[C@H](O)[C@@H]1O assay_target=UniProt:P25099 measured_metric=Ki observed_value=103

[a] C#CCn1cnc2c1c(=O)n(CCC)c(=O)n2CCC
[b] CCCn1c(=O)c2nc(-c3ccc(OCC(=O)NCCNC(=O)CCC(=O)O)cc3)[nH]c2n(CCC)c1=O
Higher Ki between a and b ? Pick one; state its label.
a

[1] COc1cccc2c1CCCC2Nc1ncnc2c1ncn2[C@@H]1O[C@H](CO)[C@@H](O)[C@H]1O (stereo partly drawn)
[2] CCNC(=O)[C@H]1O[C@@H](n2cnc3c(N)nc(/C=C/c4ccccc4)nc32)[C@H](O)[C@@H]1O
Which gives the smaller Ki number: 1 or 2 ? Pick one; state its label.
1

[P] CCCn1c(=O)c2c(nc3n2CCCN3c2ccc(OCCN3CCCC3)cc2)n(CCC)c1=O
[Q] CNC(=O)[C@H]1O[C@@H](n2cnc3c(NC(=O)Nc4cccc(Cl)c4)ncnc32)[C@H](O)[C@@H]1O
[R] CCCN1C(=O)N2C[C@@H](C(C)C)N=C2c2[nH]c(C34CCC(O)(CC3)CC4)nc21
[S] COc1cccc(-n2c(C)c(C)c3c(N)ncnc32)c1OC
[T] CCCn1c(=O)c2nc(-c3ccc(OCC(=O)O)cc3)[nH]c2n(Cc2ccc(N)c(I)c2)c1=O
# desc sort on Ki across 5 molecules List the labels in the requested order.
S, Q, P, T, R

[a] CCNC(=O)[C@H]1OC(n2cnc3c(N)nc(C#Cc4ccc(O)cc4)nc32)[C@H](O)[C@@H]1O (stereo partly drawn)
[b] CCCn1c(=O)c2nc([C@]34CC[C@](CCCC(=O)O)(CC3)CC4)[nH]c2n(CCC)c1=O
Which gives the smaller Ki number: a or b ? Pick one; state its label.
b
(b: 4 nM, a: 497 nM)

[a] O=S(=O)(c1ccccc1)c1nc(NC2CCCCC2)c2ncn(C3O[C@H](CO)[C@@H](O)[C@H]3O)c2n1 (stereo partly drawn)
[b] CCCn1c(=O)c2[nH]c(C34CCC(O)(CC3)CC4)nc2n(CCC)c1=O
[c] CC[C@H]1CN2C(=O)N(C)c3[nH]c(/C=C/c4ccccc4)nc3C2=N1
rank_up(items): orders items by reported Ki in ascending numerical order. List the labels in the requested order.
b, a, c
(b: 0.6 nM, a: 420 nM, c: 730 nM)

[P] O=C(Nc1nc(-c2ccccc2)nc2c1nnn2Cc1ccccc1)C1CCC1
[Q] OC[C@@]12C[C@@H]1[C@@H](n1cnc3c(NC4CCCC4)nc(Cl)nc31)[C@H](O)[C@@H]2O
[R] C#CCn1c(-c2ccccc2)nc2sc3c(c2c1=O)CCC3
rank_up(items): orders items by reported Ki in ascending numerical order. List the labels in the requested order.
P, R, Q

[P] Nc1ncnc2c1ccn2-c1ccccc1
[Q] CCNC(=O)[C@H]1O[C@@H](n2cnc3c(NC(=O)Nc4ccc(NS(=O)(=O)c5ccccn5)cc4)ncnc32)[C@H](O)[C@@H]1O
Which gives the smaller Ki number: P or Q ? Pick one; state its label.
Q

[a] O=C(Nc1nc(-c2ccccc2)nc2c1nnn2Cc1ccccc1)c1ccco1
[b] CCCn1c(=O)[nH]c2[nH]c(-c3ccc(S(=O)(=O)NCCO)cc3)nc2c1=O
Which gives the smaller Ki number: a or b ? Pick one; state its label.
a

----------
// molecules with pKi on UniProt P25099, multi-source literature
pKi: −log10 of the molar value.
measured.metric: pKi

molecule="CNC(=O)[C@H]1OC(n2cnc3c(NCc4cccc(I)c4Cl)ncnc32)[C@H](O)[C@@H]1O (some centres undefined)" observed_value=6.09
molecule="CCCN1C(=O)C2NC(c3ccc(OCC(=O)NCCNC(=O)NCC(=O)NCC(=O)NCC(=S)c4ccc(C5c6ccc(O)cc6OC6=CC(=O)C=CC65)c(C(=O)O)c4)cc3)=NC2N(CCC)C1=O (centres undefined)" observed_value=7.01
molecule="OC[C@H]1OC(n2cnc3c(NC4CCCCCCCCC4)ncnc32)[C@H](O)[C@@H]1O (some centres undefined)" observed_value=7.00
molecule="CCNC(=O)[C@H]1OC(n2cnc3c(N)nc(C#CNCCc4ccccc4)nc32)[C@H](O)[C@@H]1O (some centres undefined)" observed_value=6.33
molecule=CCNC(=O)[C@H]1O[C@@H](n2cnc3c(NC(=O)NCc4ccco4)ncnc32)[C@H](O)[C@@H]1O observed_value=6.38
molecule=Cn1c(=O)[nH]c2[nH]c(-c3ccc(S(=O)(=O)Oc4ccc([N+](=O)[O-])cc4)cc3)nc2c1=O observed_value=8.20
molecule=O=C(Nc1nc(-c2ccccn2)cs1)c1cccc(Cl)c1 observed_value=5.77
molecule="COc1cc2c(c(OC)c1OC)C(Nc1ncnc3c1ncn3[C@@H]1O[C@H](CO)[C@@H](O)[C@H]1O)CC2 (some centres undefined)" observed_value=5.82

[A] Cn1c(=O)c2c(ncn2Cc2ccccc2)n(C)c1=O
[B] Cc1cccc(-c2nc3c([nH]2)c(=O)n(C)c(=O)n3C)c1
[C] Cc1cc(C)cc(-c2nc(NC(=O)c3cccnc3)sc2-c2ccncc2)c1
# desc sort on pKi across 3 molecules List the labels in the requested order.
B, C, A

[a] CCNC(=O)[C@H]1OC(n2cnc3c(NC(=O)c4ccc(Cl)cc4Cl)ncnc32)[C@H](O)[C@@H]1O (some centres undefined)
[b] CCCN1C(=O)N2C(=NC[C@H]2C)c2[nH]c(C34CCC(O)(CC3)CC4)nc21
[c] CC(C)Oc1ccc2c(c1)C(Nc1ncnc3c1ncn3[C@@H]1O[C@H](CO)[C@@H](O)[C@H]1O)CCC2 (some centres undefined)
[d] CN(C)c1nc(N)n2nc(-c3ccco3)nc2n1
# desc sort on pKi across 4 molecules List the labels in the requested order.
a, b, c, d
(a: 7.80, b: 7.29, c: 6.37, d: 4.50)

[a] CNC(=O)[C@@]12C[C@@H]1[C@@H](n1cnc3c(NCc4cccc(I)c4)nc(Cl)nc31)[C@H](O)[C@@H]2O
[b] CCCCn1c(=O)c2c3nc[nH]c3ccc2n(CCCC)c1=O
Higher pKi between a and b ? Pick one; state its label.
a
(a: 7.08, b: 6.76)

[P] CCCn1c(=O)c2cc3nc[nH]c3cc2n(CCC)c1=O
[Q] O=C(Nc1ccccc1)Nc1nc(-c2ccccn2)cs1
[R] CN(C)c1nc(NC(=O)Nc2ccccc2)n2nc(-c3ccco3)nc2n1
rank_up(items): orders items by reported pKi in ascending numerical order. List the labels in the requested order.
R, Q, P
